target: T1, Anti-CD28 scFv (VH - linker 1 - VL) (biotinylated (site not stated)); test: phage ELISA as above, wells pre-incubated with soluble CD28 (competitor);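 also: ELISA of crude clonal phage supernatants added to wells pre-treated with soluble CD28 in blocking buffer, bound phage read out with HRP-conjugated anti-M13 antibody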
T1 construct: Biotinylated scFv captured on neutravidin coated plates in the panning ELISA
T1 sequence (scFv, as listed by the source): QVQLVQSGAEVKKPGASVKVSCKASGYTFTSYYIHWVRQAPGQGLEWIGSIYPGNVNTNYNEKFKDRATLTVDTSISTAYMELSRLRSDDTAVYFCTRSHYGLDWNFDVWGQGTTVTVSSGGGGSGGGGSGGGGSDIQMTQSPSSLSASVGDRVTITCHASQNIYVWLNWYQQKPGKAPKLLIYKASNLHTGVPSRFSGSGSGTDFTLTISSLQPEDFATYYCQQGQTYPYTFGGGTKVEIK
Classification field: enter Yes for CD28 scFv signal in presence of CD28 values not below 0.1, No for values below it.

Known results for binders:
Form field: CD28 scFv signal in presence of CD28 at least 0.1? Entry: MAWCPLDLWDKCFY [Phage-374]
Yes

Quick check, CD28 scFv signal in presence of CD28 >= 0.1? MDWCPRHLWTYCFH [Phage-376]
Yes

Threshold query (CD28 scFv signal in presence of CD28 >= 0.1) on MNWCPRALWHECFL [Phage-375]
Yes

Decide: CD28 scFv signal in presence of CD28 of MTWCPAYLWHECFN [Phage-370] >= 0.1?
Yes

Quick check, CD28 scFv signal in presence of CD28 >= 0.1? MDYCPSYLWHECFA [Phage-380]
No

Answer whether CD28 scFv signal in presence of CD28 of MDWCPSYLWPVCFN [Phage-365] is greater than or equal to 0.1.
Yes

New cases:
Form field: CD28 scFv signal in presence of CD28 at least 0.1? Entry: MDWCPFDLWLECFN [Phage-377]
Yes

Check this binder for CD28 scFv signal in presence of CD28 at or above 0.1: MDWCPRHLWLECFN [Phage-387]
No
